B1: HDV Ribozyme (parent)
chain: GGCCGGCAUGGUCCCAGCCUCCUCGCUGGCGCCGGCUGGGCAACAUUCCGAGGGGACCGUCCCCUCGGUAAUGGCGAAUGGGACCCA

variants of: B1; assay: self-cleavage, relative activity (ratio to wild type); higher = more cleavage; co-transcriptional
Class assignment keyed on self-cleavage, ranges bucket A (below 0.1), bucket B (0.1 to below 0.5), bucket C (0.5 or more)

Q) Into which category would you place A16C U27A ?
A) bucket C

Q) Into which category would you place C57A C66A ?
A) bucket C

Q) Into which category would you place G68C A71U ?
A) bucket C

Q) Into which category would you place C57G A78U ?
A) bucket B

Q) Into which category would you place G25A C75U ?
A) bucket A

Q) Into which category would you place C26G G76A ?
A) bucket C

Q) Into which category would you place G54A G82A ?
A) bucket B

Q) Into which category would you place G11C G39A ?
A) bucket B

Q) Into which category would you place A8U U20A ?
A) bucket B

Q) Into which category would you place C36U A77U ?
A) bucket B

Q) Into which category would you place C4U C19U ?
A) bucket A

Q) Into which category would you place C24U G54A ?
A) bucket C

Q) Into which category would you place G1U C85A ?
A) bucket B

Q) Into which category would you place C33U C61G ?
A) bucket C

Q) Into which category would you place C26U A42G ?
A) bucket C

Q) Into which category would you place U47C G82C ?
A) bucket B

Q) Into which category would you place G6C G39A ?
A) bucket A

Q) Into which category would you place C3A C85G ?
A) bucket C

Q) Into which category would you place C58G A71G ?
A) bucket C

Q) Into which category would you place C3G C85U ?
A) bucket C

Q) Into which category would you place G29A C44A ?
A) bucket B

Q) Into which category would you place C22U C24G ?
A) bucket A

Q) Into which category would you place G10C G38C ?
A) bucket A

Q) Into which category would you place G2C C85A ?
A) bucket A

Q) Into which category would you place C3G U37A ?
A) bucket A

Q) Into which category would you place G17C G40A ?
A) bucket B

Q) Into which category would you place C7G C86G ?
A) bucket B

Q) Into which category would you place G81C A87U ?
A) bucket B

Q) Into which category would you place G39A A78U ?
A) bucket B

Q) Into which category would you place G34A G54C ?
A) bucket B

Q) Into which category would you place U65C A70U ?
A) bucket C

Q) Into which category would you place C24G G73A ?
A) bucket B

Q) Into which category would you place G6C G59C ?
A) bucket B

Q) Into which category would you place A8C C33A ?
A) bucket A

Q) Into which category would you place A42G A83C ?
A) bucket B

Q) Into which category would you place A51G C64A ?
A) bucket B

Q) Into which category would you place U12A G73A ?
A) bucket B

Q) Into which category would you place A56G G81C ?
A) bucket B

Q) Into which category would you place G59C C64G ?
A) bucket C

Q) Into which category would you place A43C C84U ?
A) bucket B

Q) Into which category would you place G11A C44G ?
A) bucket A

Q) Into which category would you place U20G U69A ?
A) bucket A

Q) Into which category would you place C44G C64G ?
A) bucket C

Q) Into which category would you place C4A C24A ?
A) bucket A

Q) Into which category would you place G5A C58G ?
A) bucket B

Q) Into which category would you place G10C C33G ?
A) bucket B

Q) Into which category would you place C3U G5A ?
A) bucket B

Q) Into which category would you place C13G C15A ?
A) bucket B

Q) Into which category would you place G5C C19G ?
A) bucket A

Q) Into which category would you place C15A U23C ?
A) bucket C

Q) Into which category would you place U9A G34U ?
A) bucket B

Q) Into which category would you place C18U G74A ?
A) bucket A

Q) Into which category would you place U37G A77C ?
A) bucket B

Q) Into which category would you place G11C G82C ?
A) bucket B

Q) Into which category would you place G39A G68A ?
A) bucket B

Q) Into which category would you place U20C G81C ?
A) bucket A

Q) Into which category would you place G11U G31C ?
A) bucket B

Q) Into which category would you place G6U G81U ?
A) bucket B

Q) Into which category would you place C19G G67U ?
A) bucket A

Q) Into which category would you place G5C C19U ?
A) bucket A

Q) Into which category would you place C61U G73C ?
A) bucket C

Q) Into which category would you place U9G C15U ?
A) bucket C

Q) Into which category would you place C44A C75G ?
A) bucket B

Q) Into which category would you place A16G A45U ?
A) bucket C

Q) Into which category would you place C33A C44U ?
A) bucket A

Q) Into which category would you place G2U U47G ?
A) bucket B

Q) Into which category would you place A45U C63U ?
A) bucket C

Q) Into which category would you place C4U C15U ?
A) bucket C

Q) Into which category would you place C26U G59C ?
A) bucket C

Q) Into which category would you place G5C G76C ?
A) bucket B

Q) Into which category would you place C30A C33A ?
A) bucket A

Q) Into which category would you place C30U G53A ?
A) bucket C

Q) Into which category would you place A71C C84U ?
A) bucket C

Q) Into which category would you place U37G A87C ?
A) bucket A

Q) Into which category would you place A8C C14U ?
A) bucket C

Q) Into which category would you place G50C G76A ?
A) bucket C

Q) Into which category would you place G6C G68C ?
A) bucket B

Q) Into which category would you place A51U U69G ?
A) bucket C

Q) Into which category would you place C24A U37G ?
A) bucket B

Q) Into which category would you place C3A A42G ?
A) bucket A

Q) Into which category would you place G50A C85U ?
A) bucket C

Q) Into which category would you place C4G C61U ?
A) bucket B

Q) Into which category would you place G53A C64A ?
A) bucket C

Q) Into which category would you place U12G G52U ?
A) bucket C

Q) Into which category would you place A43U C49A ?
A) bucket C

Cited source: the RNAGym collection of RNA variant scans (doi:10.7554/elife.80360)
